Test system: HeLa Kyoto;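 note: HeLa Kyoto cells synchronized by double thymidine or nocodazole block, proteins quantified by TMT10plex mass spectrometry, three independent biological replicates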
ASSAY PROTOCOL: melting temperature (median over replicates), in situ; higher = more thermally stable
STATED CONDITIONS: cell cycle stage: G1/S
Give measured melting temperature for each item. Keep answers brief.
Form entry: value (°C) — number only.

Provide measured melting temperature on HeLa Kyoto for MSQAVQTNGTQPLSKTWELSLYELQRTPQEAITDGLEIVVSPRSLHSELMCPICLDMLKNTMTTKECLHRFCADCIITALRSGNKECPTCRKKLVSKRSLRPDPNFDALISKIYPSRDEYEAHQERVLARINKHNNQQALSHSIEEGLKIQAMNRLQRGKKQQIENGSGAEDNGDSSHCSNASTHSNQEAGPSNKRTKTSDDSGLELDNNNAAMAIDPVMDGASEIELVFRPHPTLMEKDDSAQTRYIKTSGNATVDHLSKYLAVRLALEELRSKGESNQMNLDTASEKQYTIYIATASGQFTVLNGSFSLELVSEKYWKVNKPMELYYAPTKEHK [RNF2] please.
49.2

Find the measured melting temperature of MSGDSSGRGPEGRGRGRDPHRDRTRSRSRSRSPLSPRSRRGSARERREAPERPSLEDTEPSDSGDEMMDPASLEAEADQGLCRQIRHQYRALINSVQQNREDILNAGDKLTEVLEEANTLFNEVSRAREAVLDAHFLVLASDLGKEKAKQLRSDLSSFDMLRYVETLLTHMGVNPLEAEELIRDEDSPDFEFIVYDSWKITGRTAENTFNKTHTFHFLLGSIYGECPVPKPRVDRPRKVPVIQEERAMPAQLRRMEESHQEATEKEVERILGLLQTYFREDPDTPMSFFDFVVDPHSFPRTVENIFHVSFIIRDGFARIRLDQDRLPVIEPVSINEENEGFEHNTQVRNQGIIALSYRDWEEIVKTFEISEPVITPSQRQQKPSA [NSMCE4A] with HeLa Kyoto as test system.
49.9

The reported numbers originate from the supplement of paper PMC5998384.
